assay_protocol: alamarBlue cytotoxicity (CC50), GT3a replicon cell line
experimental_context: human
reported_endpoint: CC50 at 72 h

Data request: Record request: CC50 at 72 h value, item CC=CCC(C)C(O)C1C(=O)NC(CC)C(=O)N(C)C(CSCCCCO)C(=O)N(C)C(CC(C)(C)O)C(=O)NC(C(C)C)C(=O)N(C)C(CC(C)C)C(=O)NC(C)C(=O)NC(C)C(=O)N(C)C(CC(C)C)C(=O)N(C)C(CC(C)C)C(=O)N(C)C(C(C)C)C(=O)N1C (stereo not shown) [STG-175]
Data returned: > 10 µM

====

Test system: wild-type Con1 GT1b replicon
assay_protocol: Electroporated Con1 RNA replication in Huh7.5.1 cells (RT-qPCR), wild-type
Assay type: cell-based
experimental_context: Hepatitis C virus, Huh-7.5.1, read-out: EC50 wild-type replicon
reported_endpoint: EC50 (nM)
Quick reminder: number only, in nM, skip the unit.

Data request: Record request: EC50 value, item `COC(=O)N[C@H](C(=O)N1CCC[C@H]1c1nc(-c2ccc(-c3ccc(-c4c[nH]c([C@@H]5CCCN5C(=O)[C@@H](NC(=O)OC)C(C)C)n4)cc3)cc2)c[nH]1)C(C)C`
Data returned: 0.043
